Test Protocol: AUC (0 to infinity) in Wistar rat at 1 mg/kg, iv
Type: ADME, organism-based
Parameters: time infinity, dose 1 mg/kg, route intravenous
Condition Context: plasma
Measurement Kind: AUC(0-inf) (ng·h/mL)

>  <Compound Structure String>
CCN(Cc1cc(C(F)(F)F)ccc1-c1cn(CC(=O)O)c2ccc(C)nc12)C(=O)C1CC1

>  <Measured Result>
126

$$$$
>  <Compound Structure String>
CCN(Cc1ccccc1-n1cc(CC(=O)O)c2ccc(C(F)(F)F)cc21)C(=O)C1CC1

>  <Measured Result>
1070

$$$$
>  <Compound Structure String>
CCN(Cc1cc(C(F)(F)F)ccc1-n1cc(CC(=O)O)c2ccc(C)nc21)C(=O)C1CC1

>  <Measured Result>
1220

$$$$
>  <Compound Structure String>
CCN(Cc1cc(C(F)(F)F)ccc1-c1cc(CC(=O)O)n2cccnc12)C(=O)C1CC1

>  <Measured Result>
639

$$$$
>  <Compound Structure String>
CCN(Cc1cc(F)ccc1-c1cn(CC(=O)O)c2ccccc12)C(=O)C1CC1

>  <Measured Result>
222

$$$$

----------
Assay System: Prostaglandin D2 receptor 2 (Homo sapiens, UniProt Q9Y5Y4)
Sequence (Q9Y5Y4 whole entry): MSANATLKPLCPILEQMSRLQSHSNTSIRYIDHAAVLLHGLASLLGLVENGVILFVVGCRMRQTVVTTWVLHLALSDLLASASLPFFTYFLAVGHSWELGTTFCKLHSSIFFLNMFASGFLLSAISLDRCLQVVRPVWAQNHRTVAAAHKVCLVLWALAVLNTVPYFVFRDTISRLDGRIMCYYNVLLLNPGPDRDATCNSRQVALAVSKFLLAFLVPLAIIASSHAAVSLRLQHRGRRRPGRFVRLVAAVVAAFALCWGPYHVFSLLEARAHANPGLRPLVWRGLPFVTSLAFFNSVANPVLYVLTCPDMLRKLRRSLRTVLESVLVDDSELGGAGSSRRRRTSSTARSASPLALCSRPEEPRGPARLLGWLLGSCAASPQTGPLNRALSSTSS
Test Protocol: Antagonist activity at CRTh2 receptor (unknown origin) overexpressed in CHOK1 cell membranes assessed as inhibition of [35S]-GTPgammaS binding measured after 2 hrs by liquid scintillation counting analysis
Measurement Kind: IC50 (µM)

>  <Compound Structure String>
Cc1ccc2c(CC(=O)O)cn(-c3ccc(C(F)(F)F)cc3CN(CCO)C(=O)C3CC3)c2n1

>  <Measurement Kind>
IC50

>  <Result Unit>
µM

>  <Measured Result>
0.014

$$$$
>  <Compound Structure String>
Cc1ccc2c(CC(=O)O)cn(-c3ccc(C(F)(F)F)cc3CN(CC3CC3)C(=O)C3CC3)c2n1

>  <Measurement Kind>
IC50

>  <Result Unit>
µM

>  <Measured Result>
0.011

$$$$
>  <Compound Structure String>
CCc1ccc2c(CC(=O)O)cn(-c3ccc(C(F)(F)F)cc3CN(CC)C(=O)C3CC3)c2n1

>  <Measurement Kind>
IC50

>  <Result Unit>
µM

>  <Measured Result>
0.01

$$$$
>  <Compound Structure String>
CCN(Cc1cc(C(F)(F)F)ccc1-c1nn(CC(=O)O)c2cccc(OC)c12)C(=O)C1CC1

>  <Measurement Kind>
IC50

>  <Result Unit>
µM

>  <Measured Result>
0.023

$$$$
>  <Compound Structure String>
CCN(Cc1cc(C(F)(F)F)ccc1-c1nn(CC(=O)O)c2cccc(F)c12)C(=O)C1CC1

>  <Measurement Kind>
IC50

>  <Result Unit>
µM

>  <Measured Result>
0.0043

$$$$
>  <Compound Structure String>
CCN(Cc1cc(C(F)(F)F)ccc1-c1nn(CC(=O)O)c2cc(F)ccc12)C(=O)C1CC1

>  <Measurement Kind>
IC50

>  <Result Unit>
µM

>  <Measured Result>
0.127

$$$$
>  <Compound Structure String>
CCN(Cc1cc(C(F)(F)F)ccc1-n1cc(CC(=O)O)c2ccc(C)nc21)C(=O)NCc1ccccc1

>  <Measurement Kind>
IC50

>  <Result Unit>
µM

>  <Measured Result>
0.005

$$$$
>  <Compound Structure String>
CCN(Cc1cc(C(F)(F)F)ccc1-c1nn(CC(=O)O)c2ccccc12)C(=O)C1CC1

>  <Measurement Kind>
IC50

>  <Result Unit>
µM

>  <Measured Result>
0.019

$$$$
>  <Compound Structure String>
CCN(Cc1cc(OC(F)(F)F)ccc1-n1cc(CC(=O)O)c2ccc(C)nc21)C(=O)C1CC1

>  <Measurement Kind>
IC50

>  <Result Unit>
µM

>  <Measured Result>
0.0058

$$$$

----------
Assay System: Prostaglandin D2 receptor 2 (Homo sapiens)
Test Protocol: Antagonist activity at CRTh2 receptor (unknown origin) overexpressed in CHOK1 cell membranes assessed as inhibition of [35S]-GTPgammaS binding measured after 2 hrs by liquid scintillation counting analysis
pIC50: −log10 of the molar value.
// values below are reported pIC50

>  <Compound Structure String>
CCN(Cc1ccccc1-n1cc(CC(=O)O)c2ccc(C(F)(F)F)cc21)C(=O)C1CC1

>  <pIC50>
7.96

$$$$
>  <Compound Structure String>
CCN(Cc1cc(C(F)(F)F)ccc1-n1cc(CC(=O)O)c2ccc(C)nc21)C(=O)Cc1ccccc1

>  <pIC50>
8.22

$$$$
>  <Compound Structure String>
CCN(Cc1cc(C(F)(F)F)ccc1-n1cc(CC(=O)O)c2ccc(C3CC3)nc21)C(=O)C1CC1

>  <pIC50>
7.31

$$$$
>  <Compound Structure String>
CCN(Cc1cc(C(F)(F)F)ccc1-c1nn(CC(=O)O)c2ccc(Cl)c(F)c12)C(=O)C1CC1

>  <pIC50>
7.82

$$$$
>  <Compound Structure String>
CCN(Cc1cc(C)ccc1-n1cc(CC(=O)O)c2ccc(C)nc21)C(=O)C1CC1

>  <pIC50>
8.23

$$$$
>  <Compound Structure String>
CCN(Cc1cc(S(C)(=O)=O)ccc1-n1cc(CC(=O)O)c2ccc(C)nc21)C(=O)C1CC1

>  <pIC50>
7.40

$$$$
>  <Compound Structure String>
CCN(Cc1cc(C(F)(F)F)ccc1-n1cc(CC(=O)O)c2ccc(C)nc21)C(=O)CN(C)C

>  <pIC50>
6.79

$$$$
>  <Compound Structure String>
COCCN(Cc1cc(C(F)(F)F)ccc1-n1cc(CC(=O)O)c2ccc(C)nc21)C(=O)C1CC1

>  <pIC50>
8.40

$$$$
>  <Compound Structure String>
CCN(Cc1cc(C(F)(F)F)ccc1-c1nn(CC(=O)O)c2cccc(C#N)c12)C(=O)C1CC1

>  <pIC50>
7.48

$$$$
>  <Compound Structure String>
Cc1ccc2c(CC(=O)O)cn(-c3ccc(C(F)(F)F)cc3CN(C(=O)C3CC3)C(C)C)c2n1

>  <pIC50>
7.55

$$$$
>  <Compound Structure String>
CCN(Cc1cc(C(F)(F)F)ccc1-c1nn(CC(=O)O)c2cccc(Cl)c12)C(=O)C1CC1

>  <pIC50>
8.20

$$$$

----------
Test Protocol: Terminal half life in Wistar rat at 1 mg/kg, iv
Assay type: ADME, organism-based
Design: dose 1 mg/kg, route intravenous
Condition Context: in vivo, read-out: beta t1/2 (converted)
Below, each entry is listed alongside its reported half-life.

>  <Compound Structure String>
CCN(Cc1cc(C(F)(F)F)ccc1-n1cc(CC(=O)O)c2ccc(C)nc21)C(=O)C1CC1

>  <Result Unit>
h

>  <half-life>
4.9

$$$$
>  <Compound Structure String>
CCN(Cc1ccccc1-n1cc(CC(=O)O)c2ccc(C(F)(F)F)cc21)C(=O)C1CC1

>  <Result Unit>
h

>  <half-life>
6.6

$$$$
>  <Compound Structure String>
CCN(Cc1cc(C(F)(F)F)ccc1-c1cn(CC(=O)O)c2ccc(C)nc12)C(=O)C1CC1

>  <Result Unit>
h

>  <half-life>
0.5

$$$$
>  <Compound Structure String>
CCN(Cc1cc(F)ccc1-c1cn(CC(=O)O)c2ccccc12)C(=O)C1CC1

>  <Result Unit>
h

>  <half-life>
1.9

$$$$
>  <Compound Structure String>
CCN(Cc1cc(C(F)(F)F)ccc1-c1cc(CC(=O)O)n2cccnc12)C(=O)C1CC1

>  <Result Unit>
h

>  <half-life>
4.6

$$$$
